Values compiled from PubChem BioAssay (Tox21).

assay: qHTS assay to identify small molecule agonists of the sonic hedgehog signaling (Shh) pathway - cell viability counter screen (AID 1259366); details: NIH/3T3 Gli1-Luc viability, CellTiter-Fluor, 24 h; series mostly up to 92.4 µM; also: nearly all actives have a fitted effect of over 50% in size
Records with an inconclusive call do not appear. The source made the active and inactive calls. Calls follow the shape of the dose curve; as a rule, active = well fitted cell-killing curve with a large enough effect in the repeat runs; inconclusive = weak or mixed curves, or effect the other way; inactive = flat fitted curve, though single readings scatter.
endpointName: viability change, negative = cytotoxic

# count of solved cases: 5
> print(dat)
                                   molecule  measuredvalue
1              CC1=NS(=O)(=O)c2cc(Cl)ccc2N1       inactive
2               c1coc(CNc2ncnc3nc[nH]c23)c1       inactive
3  CC(=O)C1CCCCC1=O (configuration not stated)       inactive
4  CO[C@@]1(NC(=O)CSC[C@@H](N)C(=O)O)C(=O)N2C(C(=O)O)=C(CSc3nnnn3C)CS[C@@H]21       inactive
5                         C1CCC2(CCCCO2)OC1       inactive

Please fill in: viability change, negative = cytotoxic reported for CCCCCCCCCCCCSC = inactive

Please fill in: viability change, negative = cytotoxic reported for C=CCOCC(O)CO (configuration not stated) = inactive
